The origin of these recorded values is patent US20050222136A1.

- Tested on: male Swiss albino mice
- PROTOCOL_NOTES: Writhing test in mice (phenylbenzoquinone-induced writhing reactions)
- Format: in vivo
- PROTOCOL_CONDITIONS: Mus musculus, 40 mg/kg p.o., 60 minutes prior to phenylbenzoquinone i.p.; inhibition of writhing reactions vs control
Counter-ions that a name gives are not always drawn.
Entries and their inhibition at 40 mg/kg
Report the value in % with no unit label.

Query block: Look at this compound and give its reported inhibition at 40 mg/kg. CN(C)CCO[C@H](c1ccccc1)c1ccnn1C [R-(+)-Cizolirtine]
Result block: 29

Query block: Which value of inhibition at 40 mg/kg has been reported for COc1ccc2cc([C@H](C)C(=O)O)ccc2c1 [Naproxen, reference compound] in the records?
Result block: 32

Query block: Consider the compound shown here: CC(C)Cc1ccc(C(C)C(=O)O)cc1 (stereo not shown) [Ibuprofen, reference compound] What is its recorded inhibition at 40 mg/kg?
Result block: 19.8

Query block: Quick one: inhibition at 40 mg/kg for O=C(O)Cc1ccccc1Nc1c(Cl)cccc1Cl [Diclofenac-sodium, diclofenac in form of its sodium salt, reference compound] ?
Result block: 19.8
